target-or-test-system: T1, Recombinant human leptin binding domain (hLBD) (human, UniProt P48357 428-635, biotinylated with Sulfo-NHS-LC-Biotin in the yeast display assays; not labelled when immobilized in the plate binding assay)
T1 construct: CRH2 sub-domain of the leptin receptor; Prepared in the applicants' laboratory; also called soluble human leptin receptor; CHR2
T1 sequence (looked up): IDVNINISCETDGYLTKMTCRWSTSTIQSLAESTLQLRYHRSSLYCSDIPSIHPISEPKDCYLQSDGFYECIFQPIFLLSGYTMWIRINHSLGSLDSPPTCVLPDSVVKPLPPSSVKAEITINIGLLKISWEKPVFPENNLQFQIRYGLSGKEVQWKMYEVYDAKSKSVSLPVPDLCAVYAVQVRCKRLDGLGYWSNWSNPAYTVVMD
measurement-protocol: yeast display, flow cytometry titration with biotinylated hLBD (FIG. 4B)
outcome-measure: pKd
In textbook form, pKd equals minus log to base ten of the concentration in mol/L.

binder | numeric-value
yeast-displayed mouse leptin clone L1 (D23N, Q34L, L114P) (ligand, UniProt P41160 22-167, looked up, not shown: large carriers; small tags and cut ends, mature) VPIQKVQDDTKTLIKTIVTRINNISHTQSVSAKLRVTGLDFIPGLHPILSLSKMDQTLAVYQQVLTSLPSQNVLQIANDLENLRDLLHLLAFSKSCSLPQTSGLQKPESLDGVPEASLYSTEVVALSRLQGSLQDILQQLDVSPEC | 6.80
yeast-displayed mouse leptin clone H2 (A125T, S132Y) (ligand, UniProt P41160 22-167, looked up, not shown: large carriers; small tags and cut ends, mature) VPIQKVQDDTKTLIKTIVTRINDISHTQSVSAKQRVTGLDFIPGLHPILSLSKMDQTLAVYQQVLTSLPSQNVLQIANDLENLRDLLHLLAFSKSCSLPQTSGLQKPESLDGVLEASLYSTEVVTLSRLQGYLQDILQQLDVSPEC | 6.61
yeast-displayed mouse leptin clone H16 (D23G, G112S) (ligand, UniProt P41160 22-167, looked up, not shown: large carriers; small tags and cut ends, mature) VPIQKVQDDTKTLIKTIVTRINGISHTQSVSAKQRVTGLDFIPGLHPILSLSKMDQTLAVYQQVLTSLPSQNVLQIANDLENLRDLLHLLAFSKSCSLPQTSGLQKPESLDSVLEASLYSTEVVALSRLQGSLQDILQQLDVSPEC | 7.36

Now, please, on to the next binder.
For yeast-displayed mouse leptin clone H12 (S97Y) (ligand, UniProt P41160 22-167, looked up, not shown: large carriers; small tags and cut ends, mature; also called H20; H24) VPIQKVQDDTKTLIKTIVTRINDISHTQSVSAKQRVTGLDFIPGLHPILSLSKMDQTLAVYQQVLTSLPSQNVLQIANDLENLRDLLHLLAFSKSCYLPQTSGLQKPESLDGVLEASLYSTEVVALSRLQGSLQDILQQLDVSPEC the binder record lists pKd as 6.99
